Molecular target: Calpain-2 catalytic subunit (Sus scrofa, UniProt P43367)
Sequence (P43367 whole entry): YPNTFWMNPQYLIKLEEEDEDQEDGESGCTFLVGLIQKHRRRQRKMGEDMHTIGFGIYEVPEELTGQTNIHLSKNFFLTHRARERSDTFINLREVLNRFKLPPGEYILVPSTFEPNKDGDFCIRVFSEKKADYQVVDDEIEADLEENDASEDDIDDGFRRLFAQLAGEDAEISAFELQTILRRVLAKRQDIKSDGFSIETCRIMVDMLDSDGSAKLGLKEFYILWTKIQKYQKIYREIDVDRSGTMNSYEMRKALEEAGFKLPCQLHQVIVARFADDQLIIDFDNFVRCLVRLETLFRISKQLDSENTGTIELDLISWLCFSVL
Experiment: pig calpain II inhibitor potency, dose response, biochemical, fluorogenic peptide substrate (AID 1420)
Format: functional
Calls of active or inactive are those of the source. The rule behind the calls is not given here.
PROPERTY NAME: IC50

# COMPOUND, IC50
measured = [
    ("O=C(O)c1ccc(N/N=C/c2cn(Cc3ccccc3F)c3ccccc23)cc1", "< 0.4 µM (not active)"),
    ("O=C(N[C@@H](Cc1ccccc1)C(=O)OCc1ccccc1)c1[nH]cnc1C(=O)N1CCN(c2ccccc2)CC1", "6.6 µM (not active)"),
    ("CCOC(=O)C1CCN(S(=O)(=O)c2cc(Br)cc3c2N(C(=O)C2CC2)CC3)CC1", "11.5 µM (not active)"),
    ("COc1cc(O)c(CC=C(C)C)c(O)c1C(=O)CCc1ccc(O)cc1 [DIHYDROXANTHOHUMOL]", "5 µM (not active)"),
    ("CC(C)(C)c1ccc(OCCOc2ccc(C(C)(C)C)cc2NC=O)c(NC=O)c1", "16.6 µM (not active)"),
    ("O/N=C(\\c1ccc(Cl)cc1)c1cc2ccccc2o1", "2.06 µM (not active)"),
    ("CCOc1ccc(Cl)cc1S(=O)(=O)N1CCN(c2ccc(F)cc2)CC1", "7.1 µM (not active)"),
    ("CC(C)(C)NC(=O)NC(=O)CN1CCN(c2ccc(O)cc2)CC1", "19.1 µM (not active)"),
    ("C[C@H](NS(=O)(=O)c1ccc(Cl)cc1)C(=O)OCC(=O)NC(=O)Nc1ccc2c(c1)OCCO2", "14.2 µM (not active)"),
    ("CC(C)(C)C1CCc2sc(C(=O)NNC(=O)CCl)cc2C1 (configuration not stated)", "3.86 µM (active)"),
]

# lookup: IC50 of N=C(NOC(=O)CCCCCN1C(=O)c2ccccc2C1=O)c1ccccc1 48.1 µM (not active)

# lookup: IC50 of CCN(CC)c1ncnc2scc(C3COc4ccccc4O3)c12 (configuration not stated) 10.3 µM (not active)
